Target: WT PETNR (Enterobacter cloacae, UniProt P71278)
Sequence (P71278 entry or part of it): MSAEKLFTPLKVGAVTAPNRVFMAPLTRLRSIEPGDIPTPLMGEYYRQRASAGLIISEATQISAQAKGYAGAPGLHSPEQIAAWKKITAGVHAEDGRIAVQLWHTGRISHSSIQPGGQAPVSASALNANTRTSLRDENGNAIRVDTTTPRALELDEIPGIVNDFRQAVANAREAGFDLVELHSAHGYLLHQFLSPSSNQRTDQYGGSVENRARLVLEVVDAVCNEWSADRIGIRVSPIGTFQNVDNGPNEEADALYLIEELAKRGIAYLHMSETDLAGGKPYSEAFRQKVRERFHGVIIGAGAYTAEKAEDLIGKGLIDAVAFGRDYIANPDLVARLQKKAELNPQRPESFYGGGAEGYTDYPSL
Test: Stopped-flow FMN reduction (reductive half-reaction, hydride transfer) of WT PETNR by coenzyme
Conditions: T0 = 298 K, fit of kobs1 (5–40 °C) to eq 1
Kindly state ΔHT0^⧧ for each of the entries shown.
Just the number please, in kJ mol^–1, no unit attached.

// ΔHT0^⧧ lookup, compound = [2H][C@@H]1C=CN([C@@H]2O[C@H](COP(=O)(O)OP(=O)(O)OC[C@H]3O[C@@H](n4cnc5c(N)ncnc54)[C@H](O)[C@@H]3O)[C@@H](O)[C@H]2O)C=C1C(N)=O [(R)-[4-^2H]-NADH] , result: 40.3

// ΔHT0^⧧ lookup, compound = NC(=O)C1=CN([C@@H]2O[C@H](COP(=O)(O)OP(=O)(O)OC[C@H]3O[C@@H](n4cnc5c(N)ncnc54)[C@H](OP(=O)(O)O)[C@@H]3O)[C@@H](O)[C@H]2O)C=CC1 [NADPH] , result: 30.4

// ΔHT0^⧧ lookup, compound = [2H][C@@H]1C=CN([C@@H]2O[C@H](COP(=O)(O)OP(=O)(O)OC[C@H]3O[C@@H](n4cnc5c(N)ncnc54)[C@H](OP(=O)(O)O)[C@@H]3O)[C@@H](O)[C@H]2O)C=C1C(N)=O [(R)-[4-^2H]-NADPH] , result: 36.8

// ΔHT0^⧧ lookup, compound = NC(=O)C1=CN([C@@H]2O[C@H](COP(=O)(O)OP(=O)(O)OC[C@H]3O[C@@H](n4cnc5c(N)ncnc54)[C@H](O)[C@@H]3O)[C@@H](O)[C@H]2O)C=CC1 [NADH] , result: 35.4

----------
Target: WT PETNR (Enterobacter cloacae, UniProt P71278)
Assay: Stopped-flow FMN reduction (reductive half-reaction, hydride transfer) of WT PETNR by coenzyme
Details: 40 °C; 10 mM NADPH or 25 mM NADH; pH 7.0
reported.endpoint: kobs1 (s⁻¹)
Just the number please, in s⁻¹, no unit attached.

// kobs1 lookup, compound = [2H][C@@H]1C=CN([C@@H]2O[C@H](COP(=O)(O)OP(=O)(O)OC[C@H]3O[C@@H](n4cnc5c(N)ncnc54)[C@H](O)[C@@H]3O)[C@@H](O)[C@H]2O)C=C1C(N)=O [(R)-[4-^2H]-NADH] , result: 0.673

// kobs1 lookup, compound = NC(=O)C1=CN([C@@H]2O[C@H](COP(=O)(O)OP(=O)(O)OC[C@H]3O[C@@H](n4cnc5c(N)ncnc54)[C@H](O)[C@@H]3O)[C@@H](O)[C@H]2O)C=CC1 , result: 4.25

// kobs1 lookup, compound = NC(=O)C1=CN([C@@H]2O[C@H](COP(=O)(O)OP(=O)(O)OC[C@H]3O[C@@H](n4cnc5c(N)ncnc54)[C@H](OP(=O)(O)O)[C@@H]3O)[C@@H](O)[C@H]2O)C=CC1 , result: 58.49

// kobs1 lookup, compound = [2H][C@@H]1C=CN([C@@H]2O[C@H](COP(=O)(O)OP(=O)(O)OC[C@H]3O[C@@H](n4cnc5c(N)ncnc54)[C@H](OP(=O)(O)O)[C@@H]3O)[C@@H](O)[C@H]2O)C=C1C(N)=O [(R)-[4-^2H]-NADPH] , result: 9.96

----------
Biological target: L25I PETNR (Enterobacter cloacae, UniProt P71278, L26I)
Sequence (P71278 entry or part of it L26I): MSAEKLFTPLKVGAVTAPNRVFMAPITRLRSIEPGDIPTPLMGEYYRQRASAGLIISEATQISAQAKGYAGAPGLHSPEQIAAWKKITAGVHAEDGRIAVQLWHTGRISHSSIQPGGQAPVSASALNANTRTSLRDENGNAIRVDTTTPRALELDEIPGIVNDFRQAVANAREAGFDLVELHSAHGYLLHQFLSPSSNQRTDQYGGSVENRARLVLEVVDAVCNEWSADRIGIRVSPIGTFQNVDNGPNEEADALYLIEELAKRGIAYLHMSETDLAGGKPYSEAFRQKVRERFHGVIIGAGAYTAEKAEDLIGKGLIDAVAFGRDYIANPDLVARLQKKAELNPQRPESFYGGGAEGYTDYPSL
Settings: T0 = 298 K, fit of kobs1 (5–40 °C) to eq 1
reported.endpoint: ΔCp^⧧ (kJ mol^–1 K^–1)
Just the number please, in kJ mol^–1 K^–1, no unit attached.

// ΔCp^⧧ lookup, compound = NC(=O)C1=CN([C@@H]2O[C@H](COP(=O)(O)OP(=O)(O)OC[C@H]3O[C@@H](n4cnc5c(N)ncnc54)[C@H](O)[C@@H]3O)[C@@H](O)[C@H]2O)C=CC1 , result: 0.32

// ΔCp^⧧ lookup, compound = [2H][C@@H]1C=CN([C@@H]2O[C@H](COP(=O)(O)OP(=O)(O)OC[C@H]3O[C@@H](n4cnc5c(N)ncnc54)[C@H](O)[C@@H]3O)[C@@H](O)[C@H]2O)C=C1C(N)=O [(R)-[4-^2H]-NADH] , result: 0.30

This collection of values is drawn from paper PMC6516726.
